Data credit: PubChem BioAssay

assay: LAP4-GFP expression modulators in yeast, confirmation, cell-based, cherry picks, flow cytometry, mother/daughter gates (AID 2271);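 note: ratio of sample to DMSO plate mean so 100% equals DMSO level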; conditions: S. cerevisiae LAP4-GFP strain, 3 h, measured here: mother cell gate response, at 10 µM, stronger effect = higher value, 100 means same as DMSO control
Observed Property: GFP response relative to DMSO
Returns: string containing the numeric result and its unit.

// solved cases for GFP response relative to DMSO follow
> print(dat)
                                   compound  assay.result
1  Cc1ccc(C2CC(c3cccs3)=NN2S(=O)(=O)c2ccc(C)cc2)cc1 (configuration not stated)         97.3%
2  O=C(COC(=O)c1ccc(NS(=O)(=O)c2cccs2)cc1O)Nc1nc2ccccc2s1         93.1%
3  COc1cc(/C=C2\N=C(c3ccccc3)OC2=O)ccc1OCc1c(C)no[n+]1[O-]         96.5%
4            C#CCSc1nncn1C(=O)/C=C/c1ccccc1          153%
5       CCc1noc(C)c1C(=O)Nc1nc2ccc(OC)cc2s1          111%

Would you mind giving GFP response relative to DMSO for every compound in the list below?
1. O=C(COC(=O)CCc1nc2ccccc2s1)Nc1nc(-c2ccccc2)cs1
2. Cn1ncc(N2CCN(S(=O)(=O)c3ccc(Br)cc3)CC2)c(Cl)c1=O
3. CN1CCN(C(=O)CC2C(=O)NCCN2Cc2ccc(-c3ccccc3)cc2)CC1 (configuration not stated)
4. CN(C(=O)c1cccnc1)c1nc(-c2ccccc2)cs1
5. O=C(Nc1c2ccccc2nc2ccccc12)C(Cl)(Cl)Cl
6. O=C(N/N=C/c1ccc(F)cc1)c1ccc(Br)cc1
7. CCCCC1OC23CCCCC2C(C#N)(C(=N)O3)C1(C#N)C#N (configuration not stated)
8. CCCCOc1c(Br)cc(/C=C2\N=C(C)OC2=O)cc1OCC

["97.2%", "95.1%", "99.5%", "102%", "94.1%", "109%", "111%", "106%"]

Would you mind giving GFP response relative to DMSO for every compound in the list below?
1. CN(C)c1ccc(/C=N/NC(=O)c2ccc(Cl)cc2)cc1
2. Cc1ccc(-c2csc(NC(=O)c3ccno3)n2)cc1
3. CCOC(=O)c1sc(Nc2nc3c(OC)cccc3s2)nc1C
4. C/C(=N\NC(=O)c1cccc(Cl)c1)c1cccc(NC(=O)C(C)C)c1

["103%", "106%", "92%", "92.3%"]

Would you mind giving GFP response relative to DMSO for every compound in the list below?
1. CCOC(=O)c1ccc(N=Cc2nc(-c3ccccc3)oc2OC(C)=O)cc1
2. CCOC(=O)CS(=O)(=O)c1nc(-c2ccc(F)cc2)cc(C(F)(F)F)n1
3. COc1cc(/C=C/C(=O)c2c(O)cc(C)oc2=O)cc(OC)c1O
4. COc1ccc(C(c2c(C)[nH]n(C(N)=S)c2=O)C(C#N)C#N)cc1 (configuration not stated)
5. Cc1cccc(N2C(=O)C(Cl)=C(Nc3c(C)n(C)n(-c4ccccc4)c3=O)C2=O)c1C

["170%", "165%", "106%", "299%", "104%"]

* * *

biological target: Beta-2 adrenergic receptor (Homo sapiens) (UniProt P07550); assay: beta2AR agonists driving receptor internalization, pilot screen, cell-based, FAP fluorogen, flow cytometry, validation set (AID 504459); conditions: Am2.2-beta2AR cells, FAP surface receptor flow cytometry; at 10 µM; stronger effect = higher value;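 note: agonist-driven loss of surface beta2AR via internalization measured by FAP dye flow cytometry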
Sequence (P07550 whole entry, looked up): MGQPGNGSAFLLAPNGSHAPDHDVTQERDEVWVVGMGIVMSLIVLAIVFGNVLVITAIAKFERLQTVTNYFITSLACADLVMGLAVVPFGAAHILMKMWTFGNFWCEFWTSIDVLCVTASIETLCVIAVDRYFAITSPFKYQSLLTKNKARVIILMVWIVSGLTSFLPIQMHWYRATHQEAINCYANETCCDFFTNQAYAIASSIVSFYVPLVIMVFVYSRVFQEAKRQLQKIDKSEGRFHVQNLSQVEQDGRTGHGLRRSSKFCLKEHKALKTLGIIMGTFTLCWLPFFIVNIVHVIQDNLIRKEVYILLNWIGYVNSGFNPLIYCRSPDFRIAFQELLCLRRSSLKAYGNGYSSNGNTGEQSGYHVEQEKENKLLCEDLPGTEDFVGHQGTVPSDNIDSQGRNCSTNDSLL
Exercise: for every item that follows, state its recorded response.
Give bare numbers, in %.

// solved cases for response follow
> print(dat)
                                   compound  unit.of.measure  assay.result
1       Cc1ccccc1NC(=O)C1c2ccccc2Oc2ccccc21                %         -5.21
2  CC(=O)OC[C@H]1O[C@@H](n2ncc(=O)[nH]c2=O)[C@H](OC(C)=O)[C@@H]1OC(C)=O                %         -6.75
3  CCOC(=O)/C=C1\NC(C)(C)Cc2cc(OC)c(OC)cc21                %          9.33
4           Cc1cc(-c2ccccc2)nnc1NCCN1CCOCC1                %          2.57
5           CCc1cc(=O)oc2cc(OCC=C(C)C)ccc12                %          1.45

Would you mind giving response for every compound in the list below?
1. O=C(c1ccc([N+](=O)[O-])cc1)N1CCSC1c1ccccc1Cl (configuration not stated)
2. Cc1ccc(C(=O)N2CC3(C(C)C)CN(C(=O)c4ccc(C)cc4)CC(C(C)C)(C2)C3=O)cc1

-12.5
24.4

Would you mind giving response for every compound in the list below?
1. CC[N+](C)(C)Cc1ccccc1Br
2. CCOCc1cc(C)[nH]c(=O)c1C#N
3. CN(C)c1cc(NC(=O)CN2CCOCC2)c2ccccc2n1
4. C[C@]12C=CC(=O)C=C1CCC1C3CC[C@](O)(C(=O)CO)[C@@]3(C)CC3OC312 (some centres not stated)
5. Cc1csc(-c2coc3cc(O)cc(C)c3c2=O)n1

1: -19.8; 2: 1.78; 3: 2.53; 4: 2.49; 5: 0.13

* * *

test: modulators of CIT2-GFP expression in yeast, confirmation, S. cerevisiae, GFP fusion, cherry picks, mother/daughter gates (AID 2274); settings: S. cerevisiae CIT2-GFP strain, flow cytometry, 3 h; measured here: daughter cell gate; at 10 µM; stronger effect = higher value
Observed Property: GFP response, % of DMSO
Returns: string containing the numeric result and its unit.

// solved cases for GFP response, % of DMSO follow
> print(dat)
                                   compound  assay.result
1        CCOc1ccccc1N1CCN(C(=O)c2ccccc2)CC1          100%
2  C=CCNC(=O)/C(=C\c1ccc(OC)cc1)NC(=O)c1ccc([N+](=O)[O-])cc1          108%
3  O=C(c1ccc(Cl)c([N+](=O)[O-])c1)N1CCN(c2ccccc2)CC1          101%

Would you mind giving GFP response, % of DMSO for every compound in the list below?
1. Clc1ccccc1N=C1NN=C(c2cccs2)CS1
2. COc1ccc(CC(=O)NCc2ccccn2)cc1OC
3. Cc1[nH]n(-c2ccccc2)c(=O)c1/C=N/Nc1nncc(-c2ccccc2)n1
4. CCc1noc(C)c1C(=O)Nc1nc2ccc(OC)cc2s1
5. NC(=O)CSCc1c(Cl)cccc1Cl

["88.4%", "96.5%", "84.1%", "92.3%", "94.8%"]

Would you mind giving GFP response, % of DMSO for every compound in the list below?
1. CCOC(=O)Cn1cc(/C=C/[N+](=O)[O-])c2ccccc21
2. CCOc1ccc(Nc2nc(N(C)c3ccccc3)nc(N)c2[N+](=O)[O-])cc1
3. Cc1ccc(/C(N)=N/OC(=O)c2ccc(F)cc2)cc1

1: 92.3%; 2: 104%; 3: 121%

Would you mind giving GFP response, % of DMSO for every compound in the list below?
1. N/C(Cc1ccc(Cl)cc1Cl)=N\OC(=O)c1ccccc1
2. CCOc1c(Br)ccc2c1sc1nc[nH]c(=O)c12
3. Oc1c(N=Nc2ccccn2)ccc2ccccc12
4. COc1ccc(N2C(=O)C(Cl)=C(N(CCO)Cc3ccccc3)C2=O)cc1
5. O=c1[nH]c(=O)n([C@H]2C[C@H](O)[C@@H](CO)O2)cc1F
6. COc1ccc(C2CC(c3ccccc3)=NN2S(=O)(=O)c2ccccc2)c(OC)c1 (centres undefined)
7. COc1ccc(-c2nc(NC(=O)c3cc(C(C)(C)C)nn3C)sc2C)cc1

117%
97.6%
94.6%
101%
93.7%
108%
103%

Would you mind giving GFP response, % of DMSO for every compound in the list below?
1. COc1ccc(/C=C/C(=O)c2c(O)cc(C)oc2=O)c(OC)c1
2. CC(=O)Oc1ccc(/C=c2\sc3ncnn3c2=O)cc1
3. COc1cccc(CC(=O)OC(C)C(=O)Nc2ncc(Cl)cc2Cl)c1 (centres undefined)
4. CCOc1cc(/C=N/Nc2nc(C)cc(=O)[nH]2)ccc1O
5. COc1ccc(Br)cc1/C=C/C(=O)c1ccc(NC(C)=O)cc1
6. COCCN1C2=C(COC(C)(C)C2)C(=S)NC1c1ccccc1 (centres undefined)

95.6%
103%
98.1%
106%
101%
108%

* * *

assay: inhibitors of fungal efflux pumps CDR1, CDR2, MDR1, pilot screen, validation compound set, multiplex, phenotypic (AID 588506);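 note: Nile Red retained in cells so higher fluorescence means more efflux inhibition; 0 = negative control wells and 1 = enniatin B 25 µM full block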; details: S. cerevisiae pump-expressing triplex, Nile Red efflux flow cytometry; at 10 µM; stronger effect = higher value; the pumps come from Candida albicans
Rule: efflux inhibition (fraction of control) below -0.03 gives Y, anything at or above gives N.

The following compounds have reported results that may help.
> print(dat)
                               compound  class.assignment
1  CN(CCCN1CCOCC1)Cc1cn(C)nc1-c1ccccc1F                 N
2            CCOC(=O)c1cccc(C(=O)OCC)n1                 N
3     CN(C)CCCN1c2ccccc2CCc2ccc(Cl)cc21                 N
4         Cc1ccccc1-c1coc2cc(O)ccc2c1=O                 Y

Item COc1ccc(OCC(=O)N2c3ccc(C)cc3C3CN(C)CCC32)cc1 (stereo unspecified) : efflux inhibition (fraction of control) beneath -0.03, strictly?
N

Item `CCNC(=S)Nc1ccc(OC(F)(F)F)cc1` : efflux inhibition (fraction of control) beneath -0.03, strictly?
Y

Item `CC(=O)Oc1ccc(C(=O)O)cc1OC(C)=O` : efflux inhibition (fraction of control) beneath -0.03, strictly?
N

Item `CCOC(=O)[C@H](CCc1ccccc1)N[C@@H](C)C(=O)N1CCC[C@H]1C(=O)O` : efflux inhibition (fraction of control) beneath -0.03, strictly?
N
